Quick reference for melting point among some compounds

compound	test_value
O=C1N(Cc2ncccn2)c2ccccc2C12COc1cc3c(cc12)CCO3 (stereo unspecified)	203 to 205 °C
O=C1CCOc2ccc(OCc3ccc4ccc(Cl)cc4n3)cc21	163 to 164 °C
CS(=O)c1ccc(S(=O)(=O)N2CCCC(c3ccccc3)=N2)cc1 (stereo unspecified)	137 to 139 °C
CC(C)CCN1CNC(=O)C12CCNCC2	103 to 105 °C
Cc1c(C)c2ccc(OCCCN3CCC(N)CC3)cc2oc1=O	92 to 94 °C
CC(=O)OCC1OC(n2cc(C)c(NO)nc2=O)CC1F (stereo unspecified)	180 to 181 °C

Exercise: Request the reported melting point associated with O=C1COc2ccc(C3=Nc4ccccc4SC3c3ccccc3)cc2N1 (stereo unspecified)
Solution: 215 to 217 °C

Exercise: // repeat for CN1CC(CO)C(c2ccccc2)(c2ccccc2)C1=O (stereo unspecified) and report
Solution: 148 to 150 °C

Exercise: Same read-out for CN1Cc2cccnc2N(c2ccccc2)C1=O ?
Solution: 172 to 173 °C

Exercise: Ok, now CSC(=O)C(=O)c1ccc(NC=O)nc1
Solution: 152 to 154 °C

Exercise: Record: O=C1c2cccc3cccc(c23)C(=O)N1CCCCCCBr
Solution: 95 to 96 °C
